measuredOn: human adenosine A2a receptor (Homo sapiens (Human), UniProt P29274)
Sequence (P29274 whole entry): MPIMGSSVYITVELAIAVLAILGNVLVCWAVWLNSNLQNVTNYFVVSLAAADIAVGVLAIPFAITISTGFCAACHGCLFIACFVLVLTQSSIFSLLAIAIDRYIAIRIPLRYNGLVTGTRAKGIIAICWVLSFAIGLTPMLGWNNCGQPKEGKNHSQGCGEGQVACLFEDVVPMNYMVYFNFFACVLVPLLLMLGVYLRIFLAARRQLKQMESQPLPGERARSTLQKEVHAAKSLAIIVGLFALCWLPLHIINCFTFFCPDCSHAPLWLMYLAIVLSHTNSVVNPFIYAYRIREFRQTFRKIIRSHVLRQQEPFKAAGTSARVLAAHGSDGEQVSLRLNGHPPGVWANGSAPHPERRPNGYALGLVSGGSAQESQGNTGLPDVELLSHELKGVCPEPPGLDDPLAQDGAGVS
pIC50: −log10 of the molar value.
Label scheme for pIC50: lower than 8 is label 0, 8 and above is label 1.

Example entries begin here.
- compound: "CCC(O)(CC)CN1CCN(C(=O)[C@@H](Nc2nc(N)n3nc(-c4ccco4)nc3n2)C(C)C)CC1 [Example 348]"
  discreteLabel: "label 1"
- compound: "C[C@H](Nc1nc(N)n2nc(-c3ccco3)nc2n1)C(=O)N1CCN(CC(F)(F)C(F)(F)C(F)(F)F)CC1 [Example 320]"
  discreteLabel: "label 1"
- compound: "Nc1nc(N[C@H](C(=O)N2CCN(CC(F)(F)C(F)F)CC2)C2CC2)nc2nc(-c3ccco3)nn12 [Example 359]"
  discreteLabel: "label 1"
- compound: "COc1ccccc1N1CCN(C(=O)[C@@H]2CCCN2c2nc(N)n3nc(-c4ccco4)nc3n2)CC1 [Example 122]"
  discreteLabel: "label 0"

Query string: Given Nc1nc(N2CCC[C@H]2C(=O)N2CCN(c3ncccc3C(F)(F)F)CC2)nc2nc(-c3ccco3)nn12 [Example 124] , state whether its pIC50 is at least 8.
Result string: label 1

Query string: Item Nc1nc(N2CCC[C@H]2C(=O)N2CCN(S(=O)(=O)CCOc3ccccc3)CC2)nc2nc(-c3ccco3)nn12 [Example 70] with pIC50 of 8 or above?
Result string: label 1

Query string: Does the compound C[C@H](Nc1nc(N)n2nc(-c3ccco3)nc2n1)C(=O)N1CCN(CC(F)(F)C(F)F)CC1 [Example 318] have recorded pIC50 that is 8 or more?
Result string: label 0

Query string: Decide: pIC50 of CC[C@H](Nc1nc(N)n2nc(-c3ccco3)nc2n1)C(=O)N1CCN(C(=O)CC(C)(C)O)CC1 [Example 368] >= 8?
Result string: label 1

Query string: Please indicate if the recorded pIC50 for CC(C)(F)CN1CCC(C2CCN(C(=O)[C@@H]3CCCN3c3cc4nc(-c5ccco5)nn4c(N)n3)CC2)CC1 [Example 395] meets or exceeds 8.
Result string: label 0

Query string: Would you say Nc1nc(N2CCC[C@H]2C(=O)N2CCN(CC3(C(F)(F)F)CCCCC3)CC2)nc2nc(-c3ccco3)nn12 [Example 286] shows pIC50 at minimum 8?
Result string: label 1

---

measuredOn: human adenosine A2a receptor (Homo sapiens (Human), UniProt P29274)
Reported IC50 is given for each of the following compounds.
The answer is to be given in nM; state only the numeric part.

- smilesStructure: "Cc1ccc(-c2nc3nc(N4CCC[C@H]4C(=O)N4CCN(CC(F)(F)C(F)F)CC4)nc(N)n3n2)o1"
  reportedEndpoint: "IC50"
  measuredResult: 3
- smilesStructure: "C[C@H](Nc1nc(N)n2nc(-c3ccco3)nc2n1)C(=O)N1CCN(c2ccc(F)cc2F)CC1"
  reportedEndpoint: "IC50"
  measuredResult: 2.42
- smilesStructure: "Nc1nc(N2CCC[C@H]2C(=O)N2CCN(CC(F)(F)C(F)F)CC2)nc2sc(-c3ccco3)nc12"
  reportedEndpoint: "IC50"
  measuredResult: 0.9

We now examine a further compound.
Field IC50 (entry `Nc1nc(N2CCC[C@H]2C(=O)N2CCN(c3ccc(F)cc3)C(=O)C2)nc2nc(-c3ccco3)nn12` ) reads 2
